Hey, just so you know, these numbers are from patent US11439707B2.

Assign molar extinction coefficient to each entry below.
# EXPERIMENTAL PROTOCOL: absorption spectrum (maximum absorption wavelength, molar extinction coefficient)
# Type: physicochemical

[ask] Recorded molar extinction coefficient for COc1c(NCC2CCC(C(=O)NCCCCS(=O)(=O)O)CC2)c2c(=O)cc(OC)c3c4c(OC)cc(=O)c5c(O)c(NCC6CCC(C(=O)NCCCCS(=O)(=O)O)CC6)c6c(c(c1CC(C)=C6)c23)c54 (centres unmarked) [HC-13b-C4-SO3H] , please?
[reply] 30,000 M^−1cm^−1

[ask] Next compound up: COCCOC(=O)CCCNc1c(NCCCC(=O)OCCOC)c2c(=O)cc(OC)c3c4c(OC)cc(=O)c5c(O)c(OC)c6c(c(c1C=C(C)C6C(C)=O)c23)c54 (centres unmarked) [HB-8a-PEG1]
[reply] 30,500 M^−1cm^−1

[ask] Next compound up: COc1c(O)c2c(=O)cc(OC)c3c4c(OC)cc(=O)c5c(NO)c(NO)c6c(c(c1CC(C)=C6)c23)c54 [HC-37a]
[reply] 30,500 M^−1cm^−1

[ask] Next compound up: COc1c2c3c4c(c(NC5(CO)CC5)c(=O)c5c(NC6(CO)CC6)cc(OC)c(c6c(OC)cc(O)c(c1=O)c63)c54)C=C(C)C2C(C)=O (centres unmarked) [HB-35c]
[reply] 32,500 M^−1cm^−1

[ask] Next compound up: COc1c2c3c4c(c(NCCC(=O)O)c(=O)c5c(O)cc(OC)c(c6c(OC)cc(NCCC(=O)O)c(c1=O)c63)c54)C=C(C)C2C(C)=O (centres unmarked) [HB-10d]
[reply] 32,500 M^−1cm^−1

[ask] Next compound up: COc1c2c3c4c(c(NC(C(=O)O)C(C)C)c(=O)c5c(O)cc(OC)c(c6c(OC)cc(NC(C(=O)O)C(C)C)c(c1=O)c63)c54)C=C(C)C2C(C)=O (centres unmarked) [HB-22d]
[reply] 21,500 M^−1cm^−1

[ask] Next compound up: CCNNc1c2c3c4c(c(OC)c(=O)c5c(NNCC)cc(OC)c(c6c(OC)cc(O)c(c1=O)c63)c54)C(C(C)=O)C(C)=C2 (centres unmarked) [HB-36d]
[reply] 32,000 M^−1cm^−1

[ask] Next compound up: COCCOCCNC(=O)C1CCC(CNc2c(NCC3CCC(C(=O)NCCOCCOC)CC3)c3c(=O)cc(OC)c4c5c(OC)cc(=O)c6c(O)c(OC)c7c(c(c2C=C(C)C7C(C)=O)c34)c65)CC1 (centres unmarked) [HB-13a-NH-PEG1]
[reply] 31,000 M^−1cm^−1

[ask] Next compound up: COc1c(NCCOC(=O)N2CC(=O)NC(=O)C2)c2c(=O)cc(OC)c3c4c(OC)cc(=O)c5c(O)c(NCCOC(=O)N6CC(=O)NC(=O)C6)c6c(c(c1C(C(C)=O)C(C)=C6)c23)c54 (centres unmarked) [HB-40b]
[reply] 31,500 M^−1cm^−1

[ask] Next compound up: COCCOCCOCCOCCOCCOCCOCCOCCOCCNC(=O)C1CCC(CNc2c3c4c5c(c(OC)c(=O)c6c(NCC7CCC(C(=O)NCCOCCOCCOCCOCCOCCOCCOCCOCCOC)CC7)cc(OC)c(c7c(OC)cc(O)c(c2=O)c74)c65)C(C(C)=O)C(C)=C3)CC1 (centres unmarked) [HB-13d-NH-PEG8]
[reply] 31,500 M^−1cm^−1

[ask] Next compound up: COc1c2c3c4c(c(NCC(=O)O)c(=O)c5c(NCC(=O)O)cc(OC)c(c6c(OC)cc(O)c(c1=O)c63)c54)C=C(C)C2 [HC-7c]
[reply] 29,500 M^−1cm^−1

[ask] Next compound up: COc1c(NCC(=O)O)c2c(=O)cc(OC)c3c4c(OC)cc(=O)c5c(O)c(NCC(=O)O)c6c(c(c1CC(C)=C6)c23)c54 [HC-7b]
[reply] 28,500 M^−1cm^−1

[ask] Next compound up: COCCOCCOCCOCCOCCOCCOCCC(=O)OC1CCC(Nc2c3c4c5c(c(OC)c(=O)c6c(NC7CCC(OC(=O)CCOCCOCCOCCOCCOCCOCCOC)C7)cc(OC)c(c7c(OC)cc(O)c(c2=O)c74)c65)C(C(C)=O)C(C)=C3)C1 (centres unmarked) [HB-20d-PEG6]
[reply] 30,500 M^−1cm^−1

[ask] Next compound up: COCCOCCOCCOCCOCCOCCOCCOCCOCCOCCOCCOCCOC(=O)CCCNc1c2c3c4c(c(OC)c(=O)c5c(O)cc(OC)c(c6c(OC)cc(NCCCC(=O)OCCOCCOCCOCCOCCOCCOCCOCCOCCOCCOCCOCCOC)c(c1=O)c63)c54)C(C(C)=O)C(C)=C2 (centres unmarked) [HB-8c-PEG12]
[reply] 33,000 M^−1cm^−1

[ask] Next compound up: COCCOCCNC(=O)CCCNc1c(NCCCC(=O)NCCOCCOC)c2c(=O)cc(OC)c3c4c(OC)cc(=O)c5c(O)c(OC)c6c(c(c1C=C(C)C6)c23)c54 [HC-8a-NH-PEG1]
[reply] 30,500 M^−1cm^−1

[ask] Next compound up: COC(=O)C(CO)Nc1c2c3c4c(c(OC)c(=O)c5c(NC(CO)C(=O)OC)cc(OC)c(c6c(OC)cc(O)c(c1=O)c63)c54)C(C(C)=O)C(C)=C2 (centres unmarked) [HB-24d]
[reply] 20,500 M^−1cm^−1

[ask] Next compound up: COc1c(NC(CCC(=O)O)C(=O)O)c2c(=O)cc(OC)c3c4c(OC)cc(=O)c5c(O)c(NC(CCC(=O)O)C(=O)O)c6c(c(c1C(C(C)=O)C(C)=C6)c23)c54 (centres unmarked) [HB-28b]
[reply] 21,000 M^−1cm^−1

[ask] Next compound up: COc1c2c3c4c(c(NCCNCCOCCOCCOCCOCCO)c(=O)c5c(NCCNCCOCCOCCOCCOCCO)c(Br)c(OC)c(c6c(OC)cc(O)c(c1=O)c63)c54)C=C(C)C2C(C)=O (centres unmarked) [HB-5c-Br-PEG4]
[reply] 31,500 M^−1cm^−1

[ask] Next compound up: COc1c2c3c4c(c(NCCOC(=O)N5CC(=O)NC(=O)C5)c(=O)c5c(O)cc(OC)c(c6c(OC)cc(NCCOC(=O)N7CC(=O)NC(=O)C7)c(c1=O)c63)c54)C=C(C)C2C(C)=O (centres unmarked) [HB-40d]
[reply] 31,500 M^−1cm^−1

[ask] Next compound up: COCCOCCOCCOCCOCCOCCOCCC(=O)OC1CCC(Nc2c(O)c3c(=O)cc(OC)c4c5c(OC)cc(=O)c6c(NC7CCC(OC(=O)CCOCCOCCOCCOCCOCCOCCOC)C7)c(OC)c7c(c(c2C=C(C)C7C(C)=O)c34)c65)C1 (centres unmarked) [HB-20b-PEG6]
[reply] 31,000 M^−1cm^−1
